Test system: OVCAR-5 complex spheroids with HUVEC/MSC, viability, % test/control
Experiment: Anticancer human tumor OVCAR-5 cell line growth inhibition [AhR];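 note: spheroids exposed to compounds for 7 days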
Settings: curve of first compound; second compound 0.316 µM
pIC50: −log10 of the molar value.
Observation type: pIC50

// solved cases for pIC50 follow
compound="CCN(c1cc(-c2ccc(CN3CCOCC3)cc2)cc(C(=O)NCc2c(C)cc(C)[nH]c2=O)c1C)C1CCOCC1 + Cc1cncc(-c2nc(NCCc3c[nH]c4ccccc34)c3ncn(C(C)C)c3n2)c1" observed_measurement="< 5.52"
compound="CCN(c1cc(-c2ccc(CN3CCOCC3)cc2)cc(C(=O)NCc2c(C)cc(C)[nH]c2=O)c1C)C1CCOCC1 + CC(CO)NC(=O)c1cc(-c2ccc(Cl)cc2)nn(-c2cnn(C)c2)c1=O" observed_measurement="< 5.52"

Continue with the next compound.
Complete the entry with pIC50 for Nc1ncn(C2CC(O)C(CO)S2)c(=O)n1 (stereo not drawn) + Cc1cncc(-c2nc(NCCc3c[nH]c4ccccc34)c3ncn(C(C)C)c3n2)c1
< 6.52

---

Tested on: OVCAR-5 complex spheroids with HUVEC/MSC, viability, % test/control
Assay: Anticancer human tumor OVCAR-5 cell line growth inhibition [AhR];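 note: spheroids exposed to compounds for 7 days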
Details: curve of first compound; second compound 0.316 µM
pIC50: −log10 of the molar value.
pIC50 reference

Some molecules with known pIC50 results, for comparison:
molecule="Nc1ncn(C2CC(O)C(CO)S2)c(=O)n1 (stereo not drawn) + Cc1ccccc1N=Nc1ccc(NC(=O)c2ccnn2C)c(C)c1" target_or_test_system="OVCAR-5 complex spheroids with HUVEC/MSC, viability, % test/control" observation_type=pIC50 observed_measurement="< 6.52"
molecule="O=C(C=Cc1cccc(S(=O)(=O)Nc2ccccc2)c1)NO + CC(CO)NC(=O)c1cc(-c2ccc(Cl)cc2)nn(-c2cnn(C)c2)c1=O" target_or_test_system="OVCAR-5 complex spheroids with HUVEC/MSC, viability, % test/control" observation_type=pIC50 observed_measurement=6.06

Tell me its pIC50 given Cn1ncnc1C1c2n[nH]c(=O)c3cc(F)cc(c23)NC1c1ccc(F)cc1 (stereo not drawn) + CC(CO)NC(=O)c1cc(-c2ccc(Cl)cc2)nn(-c2cnn(C)c2)c1=O as the entry.
< 7.00

---

Tested on: OVCAR-5 complex spheroids with HUVEC/MSC, viability, % test/control
Test: Anticancer human tumor OVCAR-5 cell line growth inhibition [AhR];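 note: spheroids exposed to compounds for 7 days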;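 for viability, T/C: 100% = DMSO vehicle control wells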
Conditions: second compound 3.16 µM; first compound 0.00949 µM; stronger effect = lower value
Reported values of viability, T/C for individual entries
Only the number, expressed in %, is required.

Worked set:
compound="CC(C)CC(NC(=O)C(Cc1ccccc1)NC(=O)c1cnccn1)B(O)O (stereo not drawn) + CC(CO)NC(=O)c1cc(-c2ccc(Cl)cc2)nn(-c2cnn(C)c2)c1=O" observed_measurement=87.3
compound="Nc1ncn(C2CC(O)C(CO)S2)c(=O)n1 (stereo not drawn) + Cc1ccccc1N=Nc1ccc(NC(=O)c2ccnn2C)c(C)c1" observed_measurement=114
compound="CCN(c1cc(-c2ccc(CN3CCOCC3)cc2)cc(C(=O)NCc2c(C)cc(C)[nH]c2=O)c1C)C1CCOCC1 + CC(CO)NC(=O)c1cc(-c2ccc(Cl)cc2)nn(-c2cnn(C)c2)c1=O" observed_measurement=108
compound="CCc1c2c(nc3ccc(O)cc13)-c1cc3c(c(=O)n1C2)COC(=O)[C@]3(O)CC + Cc1ccccc1N=Nc1ccc(NC(=O)c2ccnn2C)c(C)c1" observed_measurement=45.4
compound="Nc1ncn(C2CC(O)C(CO)S2)c(=O)n1 (stereo not drawn) + Cc1cncc(-c2nc(NCCc3c[nH]c4ccccc34)c3ncn(C(C)C)c3n2)c1" observed_measurement=75.5

Tell me measured viability, T/C for CC(C)CC(NC(=O)C(Cc1ccccc1)NC(=O)c1cnccn1)B(O)O (stereo not drawn) + Cc1ccccc1N=Nc1ccc(NC(=O)c2ccnn2C)c(C)c1 please.
105

Kindly indicate its recorded viability, T/C. Item: Nc1ncn(C2CC(O)C(CO)S2)c(=O)n1 (stereo not drawn) + CC(CO)NC(=O)c1cc(-c2ccc(Cl)cc2)nn(-c2cnn(C)c2)c1=O
102

Tell us which viability, T/C value is on record for O=C(C=Cn1cnc(-c2cc(C(F)(F)F)cc(C(F)(F)F)c2)n1)NNc1cnccn1 + Cc1ccccc1N=Nc1ccc(NC(=O)c2ccnn2C)c(C)c1
114

---

Test system: OVCAR-5 complex spheroids with HUVEC/MSC, viability, % test/control
Assay: Anticancer human tumor OVCAR-5 cell line growth inhibition [AhR];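 note: spheroids exposed to compounds for 7 days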;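 for viability, T/C: 100% = DMSO vehicle control wells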
Details: second compound 0.316 µM; first compound 0.0316 µM; stronger effect = lower value
Observation type: viability, T/C

// solved cases for viability, T/C follow
molecule="COc1cccc2c1C(=O)c1c(O)c3c(c(O)c1C2=O)CC(O)(C(=O)CO)CC3OC1CC(N)C(O)C(C)O1 (stereo not drawn) + Cc1ccccc1N=Nc1ccc(NC(=O)c2ccnn2C)c(C)c1" observed_measurement=61.6%
molecule="NS(=O)(=O)OCC1CC(n2ccc3c(NC4CCc5ccccc54)ncnc32)CC1O (stereo not drawn) + Cc1ccccc1N=Nc1ccc(NC(=O)c2ccnn2C)c(C)c1" observed_measurement=88.3%
molecule="CC1COCCN1c1cc(C2(S(C)(=N)=O)CC2)nc(-c2ccnc3[nH]ccc23)n1 (stereo not drawn) + Cc1ccccc1N=Nc1ccc(NC(=O)c2ccnn2C)c(C)c1" observed_measurement=111%
molecule="Nc1ccccc1NC(=O)c1ccc(CNC(=O)OCc2cccnc2)cc1 + CC(CO)NC(=O)c1cc(-c2ccc(Cl)cc2)nn(-c2cnn(C)c2)c1=O" observed_measurement=95.9%

Report the value of viability, T/C obtained on OVCAR-5 complex spheroids with HUVEC/MSC, viability, % test/control for COc1cc(Nc2ncc3c(n2)-c2ccc(Cl)cc2C(c2c(F)cccc2OC)=NC3)ccc1C(=O)O + Cc1cncc(-c2nc(NCCc3c[nH]c4ccccc34)c3ncn(C(C)C)c3n2)c1 .
87.3%

---

Test system: OVCAR-5 complex spheroids with HUVEC/MSC, viability, % test/control
Test: Anticancer human tumor OVCAR-5 cell line growth inhibition [AhR];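 note: spheroids exposed to compounds for 7 days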;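 for viability, T/C: 100% = DMSO vehicle control wells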
Conditions: second compound 10 µM; first compound 0.01 µM; stronger effect = lower value
Observation type: viability, T/C (%)
Report only the number, with the unit % understood.

molecule="CC1COCCN1c1cc(-c2ccnn2C)c2ccnc(-c3ccn[nH]3)c2n1 (stereo not drawn) + Cc1cncc(-c2nc(NCCc3c[nH]c4ccccc34)c3ncn(C(C)C)c3n2)c1" observed_measurement=12.8
molecule="Nc1ncn(C2CC(O)C(CO)O2)c(=O)n1 (stereo not drawn) + Cc1cncc(-c2nc(NCCc3c[nH]c4ccccc34)c3ncn(C(C)C)c3n2)c1" observed_measurement=10.1

# evaluate next
Fill in viability, T/C for record Cn1ncnc1C1c2n[nH]c(=O)c3cc(F)cc(c23)NC1c1ccc(F)cc1 (stereo not drawn) + Cc1cncc(-c2nc(NCCc3c[nH]c4ccccc34)c3ncn(C(C)C)c3n2)c1
27.2

---

molecules and their reported viability, T/C
System: OVCAR-5 complex spheroids with HUVEC/MSC, viability, % test/control
Experiment: Anticancer human tumor OVCAR-5 cell line growth inhibition [AhR];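 note: spheroids exposed to compounds for 7 days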;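 for viability, T/C: 100% = DMSO vehicle control wells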
Details: second compound 0.316 µM; first compound 0.0316 µM; stronger effect = lower value
Write the value in % as a bare number.

Example molecules with recorded viability, T/C:
molecule="COc1cc(C2c3cc4c(cc3C(OC3OC5COC(C)OC5C(O)C3O)C3COC(=O)C23)OCO4)cc(OC)c1O (stereo not drawn) + CC(CO)NC(=O)c1cc(-c2ccc(Cl)cc2)nn(-c2cnn(C)c2)c1=O" target_or_test_system="OVCAR-5 complex spheroids with HUVEC/MSC, viability, % test/control" unit_spec=% observed_measurement=105
molecule="CC(C)c1c(-c2ccccc2)nc2c(C#N)c[nH]n2c1=O + Cc1cncc(-c2nc(NCCc3c[nH]c4ccccc34)c3ncn(C(C)C)c3n2)c1" target_or_test_system="OVCAR-5 complex spheroids with HUVEC/MSC, viability, % test/control" unit_spec=% observed_measurement=101

Please report viability, T/C with OVCAR-5 complex spheroids with HUVEC/MSC, viability, % test/control for item COc1ccc([C@@H](O)c2cc(-c3ncnc4cc(N5CCOCC5)ccc34)c(F)cc2Cl)nn1 + Cc1cncc(-c2nc(NCCc3c[nH]c4ccccc34)c3ncn(C(C)C)c3n2)c1 .
104

---

Test system: OVCAR-5 complex spheroids with HUVEC/MSC, viability, % test/control
Assay: Anticancer human tumor OVCAR-5 cell line growth inhibition [AhR];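 note: spheroids exposed to compounds for 7 days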
Conditions: curve of first compound; second compound 3.16 µM
IC50 values by entry

Look over these answered cases.
compound="CC1(C)CCC(CN2CCN(c3ccc(C(=O)NS(=O)(=O)c4ccc(NCC5CCOCC5)c([N+](=O)[O-])c4)c(Oc4cnc5[nH]ccc5c4)c3)CC2)=C(c2ccc(Cl)cc2)C1 + CC(CO)NC(=O)c1cc(-c2ccc(Cl)cc2)nn(-c2cnn(C)c2)c1=O" observed_measurement="> 10000 nM"
compound="COc1cccc2c1C(=O)c1c(O)c3c(c(O)c1C2=O)CC(O)(C(=O)CO)CC3OC1CC(N)C(O)C(C)O1 (stereo not given) + Cc1cncc(-c2nc(NCCc3c[nH]c4ccccc34)c3ncn(C(C)C)c3n2)c1" observed_measurement="< 31.6 nM"

Tell us which IC50 value is on record for Nc1ncn(C2CC(O)C(CO)S2)c(=O)n1 (stereo not given) + Cc1cncc(-c2nc(NCCc3c[nH]c4ccccc34)c3ncn(C(C)C)c3n2)c1
> 300 nM

Supply reported IC50 belonging to this compound: Nc1ncn(C2CC(O)C(CO)S2)c(=O)n1 (stereo not given) + CC(CO)NC(=O)c1cc(-c2ccc(Cl)cc2)nn(-c2cnn(C)c2)c1=O
> 300 nM

Report measured IC50; entry is O=C(c1cc(Cc2n[nH]c(=O)c3ccccc23)ccc1F)N1CCN(C(=O)C2CC2)CC1 + Cc1ccccc1N=Nc1ccc(NC(=O)c2ccnn2C)c(C)c1
> 10000 nM
